Test Details: Quantitative High-Throughput drug screen in 47 multiple myeloma cell lines against the NCATS MIPE library collection: OCIMY5_PLB cell viability assay (AID 1918988); further: potency means the concentration at half of the fitted maximal effect; nearly all actives have a fitted effect of over 65% in size
Experimental Context: OCI-MY5 myeloma viability, ATP luminescence, 48 h; series mostly up to 45.8 µM
Records with an inconclusive call do not appear. Active and inactive are the calls of the source. The call rests on the fitted dose curve; in most records, active means well fitted cell-killing curve with a large enough effect; inconclusive means small, poorly fitted or top-dose-only effect, or effect the other way; inactive means no such curve, though single readings can be large or run the other way.
Give Potency for every item shown.

Illustrative cases are given below, each with its answer.
CC1(C)OC2=C(C(=O)c3ccccc3C2=O)[C@H](NCc2ccccc2)[C@H]1O: 3320 nM (active)
CC(C)[C@H](C(=O)Nc1ccc(C(=O)NO)cc1)c1ccccc1: 526 nM (active)

List reported Potency for each of these molecules:
1. CN(C)CC=CC(=O)Nc1cc2c(Nc3ccc(F)c(Cl)c3)ncnc2cc1O[C@H]1CCOC1
2. COc1ccc(C(=O)CC2(O)C(=O)Nc3c(Cl)ccc(Cl)c32)cc1 (stereo not given)
3. COc1cc(C(=O)N2CCC(N3CCN(C)CC3)CC2)ccc1Nc1ncc2c(n1)N(C)c1ccccc1C(=O)N2C
4. O=C(Nc1ncc(-c2cc(C(F)F)nn2-c2c(Cl)cccc2Cl)s1)C1CC1

3320 nM (active)
1870 nM (active)
2090 nM (active)
296 nM (active)

List reported Potency for each of these molecules:
1. O=C(NC1CCNCC1)c1[nH]ncc1NC(=O)c1c(Cl)cccc1Cl
2. CC[C@H](CO)Nc1nc(NCc2ccccc2)c2ncn(C(C)C)c2n1
3. C=CC(=O)Nc1cc2c(Nc3ccc(F)c(Cl)c3)ncnc2cc1OCCCN1CCOCC1

74.3 nM (active)
18700 nM (active)
5900 nM (active)

Value lookup for Potency; key = `O=c1[nH]nc(Sc2ncc([N+](=O)[O-])s2)n1-c1ccc2c(c1)OCCO2` 2960 nM (active)

----------
Assay Target: Guanidinoacetate N-methyltransferase (Homo sapiens)
Test Details: Confirmatory Screen for Target Class Profiling of Small Molecule Inhibitors of Methyltransferases (AID 1745852); further: potency means the concentration at half of the fitted maximal effect
Experimental Context: MTase-Glo luminescence, SAH detection, recombinant enzyme
Active and inactive are the calls of the source. Calls follow the shape of the full dose curve.
Give Potency for every item shown.

Illustrative cases are given below, each with its answer.
CN1CCC(CNc2ccc3ncc(-c4cccc(OC(F)(F)F)c4)n3n2)CC1: 30.4 µM (active)
OCCCNc1cc(-c2ccnc(Nc3cccc(Cl)c3)n2)ccn1: 10.8 µM (active)
CNC(=O)CN1CCC(Oc2cc3c(Nc4cccc(Cl)c4F)ncnc3cc2OC)CC1: 42.9 µM (active)
CCS(=O)(=O)c1cccc(-c2cc(C(=O)NC3CCN(C)CC3)c(C)c3[nH]c4ncc(C)cc4c23)c1: 18.8 µM (active)
Cc1ccc(C(N)=O)cc1Nc1nccc(-c2cn(C(C)C)c3cnccc23)n1: 27.1 µM (active)
CC[C@@H]1C(=O)N(C)c2cnc(Nc3ccc(C(=O)NC4CCN(C)CC4)cc3OC)nc2N1C1CCCC1: 21.7 µM (active)

List reported Potency for each of these compounds:
1. O=C(O)C1(Cc2cccc(Nc3nccs3)n2)CCC(Oc2cccc(Cl)c2F)CC1 (centres undefined)
2. Cc1nc(Nc2n[nH]c3c2CN(C(=O)N[C@H](CN(C)C)c2ccccc2)C3(C)C)c2sccc2n1
3. C=CC(=O)Nc1cccc(Oc2nc(Nc3ccc(N4CCN(C)CC4)cc3)ncc2Cl)c1

1. 42.9 µM (active)
2. 0.0061 µM (active)
3. 27.1 µM (active)
